# Experimental system: gEgI mutant (338): HSV2 gEgI mutant heterodimer comprising gE and gI ectodomains with insertion of a (HSV2, UniProt P89475 21-416; P06764 21-256)
# Protocol summary: ELISA, supernatant

# Binder, binding result
data = [
    ("mAb clone 3, 21 (antibody, V domains shown) VH: EVQLQQSGPELVKPGASVKISCKTSGYTFTEYTMHWVKQSHGKSLEWIGGINPNNGGTSYNQKFKGKATLTVDKSSSTAYMELRSLTSEDSAVYYCARSLVEGDFAYWGQGTLVTVSA VL: DIVLTQSPASLAVSLGQRATISCRASQSVSTSSYSYMHWYQQKPGQPPKLLIKYASNLESGVPARFSGSGSGTDFTLNIHPVEEEDTATYYCQHSWEIPYTFGGGTKLEIK", "binds"),
    ("mAb clone 37 (antibody, V domains shown) VH: EVQLQQSGPELVKPGASVKISCKASGYTFTDYNMHWVKQSHGKSLEWIGYIYPYNGGTGYNQKFKTKATLTVDNSSSTAYMELRSLTSEDSAVYYCAIPGYYYAMDYWGQGTSVTVSS VL: DIVLTQSPASLAVSLGQRATISCRASKSVSTSGYSYMHWYQQKPGQPPKLLIYLASNLESGVPARFSGSGSGTDFTLNIHPVEEEDASTYYCHHSRELPRTFGGGTKLEIK", "binds"),
    ("mAb clone 12, 13 (antibody, V domains shown, also called mAb 12; mAb12) VH: QVQLKESGPGLVAPSQSLSITCTVSGFSLTSYGVHWVRQPPGKGLEWLGVIWAGGSTNYNSALMSRLSISKDNSKSQVFLKMNSLQTDDTAMYFCARGGITSLHNYVMDYWGQGTSVTVSS VL: DIVLTQSPASLAVSLGQRATISCRASESVEYYGTSLMQWYQQKPGQPPKLLIYAASNVESGVPARFSGSGSGTHFSLNIHPVEEDDIAMYFCQQSRKVPSTFGGGTKLEIK", "binds"),
]
